Taken from ChEMBL document CHEMBL2218924.

Entries and their residual activity values follow.
Biological target: Ephrin type-B receptor 4 (Homo sapiens) (UniProt P54760)
Sequence (P54760 whole entry): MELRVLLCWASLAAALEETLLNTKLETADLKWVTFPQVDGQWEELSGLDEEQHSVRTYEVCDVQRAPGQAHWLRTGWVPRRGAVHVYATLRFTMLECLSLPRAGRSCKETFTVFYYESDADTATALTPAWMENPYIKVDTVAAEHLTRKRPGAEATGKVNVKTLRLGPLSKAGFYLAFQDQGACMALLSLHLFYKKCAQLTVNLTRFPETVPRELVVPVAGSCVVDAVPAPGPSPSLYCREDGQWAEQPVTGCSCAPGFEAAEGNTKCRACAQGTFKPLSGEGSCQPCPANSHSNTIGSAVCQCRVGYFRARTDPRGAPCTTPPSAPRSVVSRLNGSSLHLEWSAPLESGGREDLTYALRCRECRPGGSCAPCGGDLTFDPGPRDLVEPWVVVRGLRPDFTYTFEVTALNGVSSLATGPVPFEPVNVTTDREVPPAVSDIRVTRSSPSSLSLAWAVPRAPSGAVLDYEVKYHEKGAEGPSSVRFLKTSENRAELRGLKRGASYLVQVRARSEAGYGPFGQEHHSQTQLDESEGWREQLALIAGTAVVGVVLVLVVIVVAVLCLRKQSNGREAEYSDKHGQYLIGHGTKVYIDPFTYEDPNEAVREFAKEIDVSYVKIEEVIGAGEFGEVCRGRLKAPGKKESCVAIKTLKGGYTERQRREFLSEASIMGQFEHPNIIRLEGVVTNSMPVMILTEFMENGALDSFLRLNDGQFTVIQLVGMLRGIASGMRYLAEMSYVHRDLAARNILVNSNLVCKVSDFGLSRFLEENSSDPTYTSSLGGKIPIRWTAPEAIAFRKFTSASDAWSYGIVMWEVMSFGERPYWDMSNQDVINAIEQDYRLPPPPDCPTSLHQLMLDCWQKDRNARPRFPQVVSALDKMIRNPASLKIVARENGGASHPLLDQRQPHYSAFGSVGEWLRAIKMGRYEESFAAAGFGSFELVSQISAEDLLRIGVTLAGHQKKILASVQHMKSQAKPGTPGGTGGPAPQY
Details: at 10 µM
Description: Millipore: Percentage of residual kinase activity of EPHB4 at 10uM relative to control. Control inhibitor: PP2 at 30.0uM. Buffer: 8 mM MOPS pH 7.0, 0.2 mM EDTA, 10 mM MnCl2
Field: numeric (%). Do not append units.

- Nc1ccc2ncnc(NCCc3ccc(Oc4ccccc4)cc3)c2c1: 98
- Nc1n[nH]c2nnc(-c3c(-c4ccccc4)nn4ccccc34)cc12: 67
- CCN(CC)CCCCN1c2ccccc2Oc2ccc(Cl)cc21: 133
- Cc1nc2cc3nc(-c4cccs4)cnc3cc2n1C: 119
- O=c1c2ccccc2[nH]c(=S)n1CCN1CCC(=C(c2ccc(F)cc2)c2ccc(F)cc2)CC1: 121
- O=C1NC(=O)/C(=C\c2ccc3nccnc3c2)S1: 111
- Cc1ccc(NC2=CC(=O)c3sc(C)nc3C2=O)cc1: 96
- N#C/C(=C(\N)Sc1ccc(N)cc1)c1ccccc1C(F)(F)F: 92
- Cn1cc(/C=C2\C(=O)Nc3ccc(S(N)(=O)=O)cc32)c2ccccc21: 11
- CC(=O)O/N=C1\C(=C2\C(=O)Nc3cc(Br)ccc32)Nc2ccccc21: 65

Here's the next entry for you.
Qu. Item under review: `Nc1cccc(-c2cc3c(Oc4cccc(O)c4)ncnc3[nH]2)c1` . Reported residual activity?
Ans. -3

---

Target: Serine/threonine-protein kinase Sgk3 (Homo sapiens)
Settings: at 10 µM
Classify as follows. Reported residual activity greater than or equal to 90%: 1 (yes). Reported residual activity below: 0 (no).

• Nc1ccc2ncnc(NCCc3ccc(Oc4ccccc4)cc3)c2c1 = 0 (no)
• CCOc1cc2ncnc(Nc3cccc(Br)c3)c2cc1OCC = 0 (no)
• COc1cc2ncnc(Nc3ccc(Oc4ccccc4)cc3)c2cc1OC = 1 (yes)
• O=C(Nc1cccc(Nc2nccc(Nc3cccc(C(F)(F)F)c3)n2)c1)C1CC1 = 0 (no)
• COc1cc2ncnc(Nc3ccc(O)c(Br)c3)c2cc1OC = 0 (no)

Qu. Evaluate `O=C1Nc2cc(Br)ccc2/C1=C1/Nc2ccccc2/C1=N\O` : residual activity at minimum 90%?
Ans. 0 (no)

Qu. Evaluate `Oc1c2ccccc2c2c3c(cccc13)N=N2` : residual activity at minimum 90%?
Ans. 0 (no)

Qu. Evaluate `Cc1ccc(NC2=CC(=O)c3sc(C)nc3C2=O)cc1` : residual activity at minimum 90%?
Ans. 0 (no)

Qu. Evaluate `NC(=O)c1ccc2[nH]c(-c3ccc(Oc4ccc(Cl)cc4)cc3)nc2c1` : residual activity at minimum 90%?
Ans. 1 (yes)

Qu. Evaluate `COc1ccc(OC)c2c(=S)c3ccccc3[nH]c12` : residual activity at minimum 90%?
Ans. 0 (no)

Qu. Evaluate `CC(=O)O/N=C1\C(=C2\C(=O)Nc3cc(Br)ccc32)Nc2ccccc21` : residual activity at minimum 90%?
Ans. 0 (no)

Qu. Evaluate `Cn1nc2c3c(cccc31)C(=O)c1ccccc1-2` : residual activity at minimum 90%?
Ans. 0 (no)

Qu. Evaluate `COc1cccc(-c2cc(=O)c3ccccc3o2)c1N` : residual activity at minimum 90%?
Ans. 0 (no)

---

Target: Inhibitor of nuclear factor kappa-B kinase subunit beta (Homo sapiens)
Details: at 1 µM
REPORTED PROPERTY: residual activity
Value and unit, in that order.

These solved cases illustrate the format of a correct answer.
• CN(C)CCCn1cc(C2=C(c3c[nH]c4ccccc34)C(=O)NC2=O)c2ccccc21 = 104%
• Cn1nc2c3c(cccc31)C(=O)c1ccccc1-2 = 100%
• COc1cc2ncnc(Nc3ccc(NC(=O)c4ccccc4)cc3)c2cc1OC = 109%

Qu. Item under review: `CCN(CC)C(=O)c1ccc(Nc2nc(OCC3CCCCC3)c3nc[nH]c3n2)cc1` . Reported residual activity?
Ans. 94%

Qu. Item under review: `COc1cc2ncnc(Nc3ccc(O)c(Br)c3)c2cc1OC` . Reported residual activity?
Ans. 97%

Qu. Item under review: `CCN(CC)CCCCN1c2ccccc2Oc2ccc(Cl)cc21` . Reported residual activity?
Ans. 112%
